# system_tested: UniProt P00772
# assay_info: Spectrophotometric assay of PPE inactivation (in vitro)
# Type: biochemical
# applied_conditions: Table I azolides; read-out: Porcine pancreatic elastase k3 /Ki
assay_readout: kinact/KI (M⁻¹ s⁻¹)

# molecule, assay_readout, recorded_result
rows = [
    ("COC(=O)[C@@H](NC(=O)n1ccnc1)C(C)C", "kinact/KI", 2.8),
]

(P) CCCCC(NC(=O)n1ccnc1)C(=O)OC (racemic)
(Q) CCC(C)[C@H](NC(=O)n1ccnc1)C(=O)OC (some centres unmarked)
Q: Endpoint returns whichever of P and Q has the numerically higher kinact/KI. Pick one; state its label.
Result: P

###

# system_tested: Human leukocyte elastase (HLE) (Homo sapiens)
# Construct: purchased Elastin Products, St. Louis, Mo
# Sequence (P08246 30-267): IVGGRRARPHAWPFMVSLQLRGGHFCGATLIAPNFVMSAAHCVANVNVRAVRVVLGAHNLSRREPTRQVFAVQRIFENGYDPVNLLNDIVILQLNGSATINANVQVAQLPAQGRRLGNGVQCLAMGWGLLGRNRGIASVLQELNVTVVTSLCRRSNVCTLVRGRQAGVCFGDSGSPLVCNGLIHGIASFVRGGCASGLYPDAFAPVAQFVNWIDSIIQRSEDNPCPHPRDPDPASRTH
# assay_info: Spectrophotometric assay of HLE inactivation (in vitro)
# Type: biochemical
# applied_conditions: Table V, succinimide derivatives; read-out: kobsd /[I], inhibition of leukocyte elastase
# Procedure: The appropriate amount of inhibitor in acetonitrile was mixed with PPE in phosphate buffer solution and placed in a constant temperature bath. Aliquots were withdrawn at different time intervals and transferred to a cuvette containing 100 uL of substrate, 140 uL of acetonitrile, and 2 mL of phosphate buffer, pH 6.5. After incubating for 30 seconds, the absorbance change was monitored for two minutes at 347.5 nm. […] (kobsd) were determined by plotting in [E]t /[E]o vs time.
assay_readout: kinact/KI (M⁻¹ s⁻¹)

# molecule, system_tested, kinact/KI, M⁻¹ s⁻¹
rows = [
    ("Cc1ccc(S(=O)(=O)ON2C(=O)CC(Cc3ccccc3)C2=O)cc1 (stereo not shown)", "Human leukocyte elastase (HLE) (Homo sapiens)", 1610),
    ("CS(=O)(=O)ON1C(=O)CC(Cc2ccccc2)C1=O (racemic)", "Human leukocyte elastase (HLE) (Homo sapiens)", 1170),
    ("CCCCS(=O)(=O)ON1C(=O)CC(Cc2ccccc2)C1=O (stereo not shown)", "Human leukocyte elastase (HLE) (Homo sapiens)", 1680),
    ("O=C1CC(Cc2ccccc2)C(=O)N1OS(=O)(=O)c1ccc(Br)cc1 (stereo not shown)", "Human leukocyte elastase (HLE) (Homo sapiens)", 1650),
]

(P) CN(C)S(=O)(=O)ON1C(=O)CC(Cc2ccccc2)C1=O (stereo not shown)
(Q) O=C1CC(Cc2ccccc2)C(=O)N1OS(=O)(=O)c1ccccc1 (stereo not shown)
Q: // compare: P vs Q , metric kinact/KI, want the smaller Kindly give the label for the entry you pick.
Result: P

###

# system_tested: Porcine pancreatic elastase (PPE) (Sus scrofa)
# Sequence (P00772 27-266): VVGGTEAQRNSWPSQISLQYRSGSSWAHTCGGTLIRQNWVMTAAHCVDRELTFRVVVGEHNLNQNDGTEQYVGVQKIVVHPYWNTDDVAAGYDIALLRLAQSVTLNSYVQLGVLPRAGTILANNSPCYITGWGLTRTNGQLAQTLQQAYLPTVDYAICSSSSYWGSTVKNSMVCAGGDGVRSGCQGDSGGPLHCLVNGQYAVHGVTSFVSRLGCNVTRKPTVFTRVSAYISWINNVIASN
# assay_info: Spectrophotometric assay of PPE inactivation (in vitro)
# Assay type: biochemical
# Method: The enzyme assays used to evaluate the potency of the inhibitors in vitro were performed as follows: PPE was assayed spectrophotometrically at 347.5 nm with (tert-butoxycarbonyl)-alanyl-p-nitrophenol in 0.05 M phosphate buffer, pH 6.5, 25° C., or by using succinyl-L-trialanyl-p-nitroanilide in 0.1 M Tris buffer, pH 8.0, at 410 nm. […]
assay_readout: Inhibition of PPE (in words)

# compound, Inhibition of PPE (in words)
rows = [
    ("COC(=O)[C@H](CCSC)NC(=O)n1ccnc1", "unaffected"),
    ("CCC[C@H](NC(=O)n1ccnc1)C(=O)OC [Compound 5]", "little for PPE"),
    ("CCC[C@H](NC(=O)S(=O)(=O)O)C(=O)OC [Compound 4, Table II]", "no effect"),
    ("CS(=O)(=O)ON1C(=O)CC(Cc2ccccc2)C1=O (racemic) [BENZYL, OSO2 CH3]", "unaffected"),
    ("COC(=O)[C@H](NC(=O)n1ccnc1)C(C)C [Compound 4]", "no effect"),
]

Q: Suppose we examine the compound CCCCC(NC(=O)n1ccnc1)C(=O)OC (centres unmarked) [Compound 9] ; what Inhibition of PPE (in words) value has been reported?
Result: little for PPE
